# Test system: TO-N3-2 (biotin conjugate)
# ASSAY REMARKS: pull-down binding Z-score (relative to library population); higher = stronger binding
# CONDITION SUMMARY: RNA library: Library-2
Would you please tag the item satisfied when its pull-down binding Z-score is -0.4 or above, and not satisfied when it is below?

Past entries and their recorded results:
Request: Assess whether reported pull-down binding Z-score for CUUUAUUAGAAG [DMSMaPseq_invitro_SARS-CoV-2_Motif_195] sits at -0.4 or higher.
Result: not satisfied

Request: Assess whether reported pull-down binding Z-score for "GGUGUUUAUUACC" sits at -0.4 or higher.
Result: not satisfied

Request: Assess whether reported pull-down binding Z-score for GAAAACUUUGGAGAAAAAUUUUC [hsa-mir-4659a] sits at -0.4 or higher.
Result: not satisfied

Request: Assess whether reported pull-down binding Z-score for GUGGAGCCAAAAUUAGAAGGGCCAAAAUUCUACCUGGCCCACUACCACAG [hsa-mir-3978] sits at -0.4 or higher.
Result: satisfied

Request: Assess whether reported pull-down binding Z-score for GGAUGAGAGAACUCAUCC [IAV_invivo_NP_5_Motif_6+IAV_invivo_NP_5_Motif_6] sits at -0.4 or higher.
Result: not satisfied

Request: Assess whether reported pull-down binding Z-score for "CUAAGUCACUAACUGAGAAUAAAUAUUCUCAAUUAGAUGAAGAG" sits at -0.4 or higher.
Result: not satisfied

Request: Assess whether reported pull-down binding Z-score for "AAUUGAUUCUUACUUUGUAGUUAAGAGACACACUUUCUCUAACUACCAACAUGAAGAAACAAUU" sits at -0.4 or higher.
Result: not satisfied

Request: Assess whether reported pull-down binding Z-score for GCAGCAAUAUGC [IAV_invivo_PA_3_Motif_2+IAV_invivo_PA_3_Motif_2] sits at -0.4 or higher.
Result: satisfied

Next:
Request: Assess whether reported pull-down binding Z-score for CAACAGUUCUGUAGCGCAAUUGUG [hsa-mir-203a] sits at -0.4 or higher.
Result: satisfied

Request: Assess whether reported pull-down binding Z-score for CAGCCUUGACAACAGGCUG [hsa-mir-3130-2] sits at -0.4 or higher.
Result: satisfied

Request: Assess whether reported pull-down binding Z-score for "GGCUAUGUAACACAUGGCU" sits at -0.4 or higher.
Result: not satisfied

* * *

# Tested on: TO-3-N3-2 (biotin conjugate)
# ASSAY REMARKS: pull-down binding Z-score (relative to library population); higher = stronger binding
# CONDITION SUMMARY: RNA library: Library-2
So I've got a bunch of sequences here, and I need their pull-down binding Z-score values.
Answers are plain numbers.

Request: Which pull-down binding Z-score value is on record for "CUUCACAUAUGUAUUGUUCUUUUUACCCUCCAGAUGAGGAUGAAGAAGAAGGUGAUUGUGAAG" ?
Result: -0.0402

// for each sequence in input: emit pull-down binding Z-score
1. UUCGCGGUUGGGCU [hsa-mir-3143]
2. UGCUUUGGUGUAAAGAUGGCCAUGUAGAAACAUUUUACCCAAAAUUACAAUCUAGUCAAGCGUGGCAACCGGGUGUUGCUAUGCCUAAUCUUUACAAAAUGCA
3. GCUGUUUAAUAGGGGCUGAACAUGUCAACAACUCAUAUGAGUGUGACAUACCCAUUGGUGCAGGUAUAUGCGCUAGUUAUCAGACUCAGACUAAUUCUCCUCGGC
4. UCUGUUUGUUUUCUCUUAAACA [hsa-mir-519d]
5. CAAGCACACAGGGCCUGGGACUAGCAUG [hsa-mir-4728]

Result:
[0.258, -0.00692, 0.183, -0.553, 0.256]

// for each sequence in input: emit pull-down binding Z-score
1. AAGUGCCGUCCUCAUGAGCCCCU [hsa-mir-6769b]
2. UGCCAUUUGUCAUGAUGGAAAAGCACACUUUCCUCGUGAAGGUGUCUUUGUUUCAAAUGGCA [SHAPE_invivo_SARS-CoV-2_Motif_465]
3. CAUAAACGAACUUAUGGAUUUGUUUAUG
4. UGGCCGCAAAUUGCACAAUUUGCCCCCA [SHAPE_invitro_SARS-CoV-2_Motif_532]
5. AGUCCAAAGGAAAGGGCU [hsa-mir-8077]
6. CACCAAGACUACUUACUGGUG [IAV_invivo_PB1_2_Motif_22+IAV_invivo_PB1_2_Motif_22]
7. CAAUGAAGACAUGAAGACCCAAUGUCUUCAUUG [hsa-mir-4529]

Result:
[0.181, -0.218, -0.393, -0.435, 0.232, -0.501, -0.347]

Request: Which pull-down binding Z-score value is on record for GUGUAUGGGCUGAGCCUUGC [hsa-mir-6805] ?
Result: 0.0312
